# Study system: Golgi-associated PDZ and coiled-coil motif-containing protein (Homo sapiens) (UniProt Q9HD26)
# Test details: untagged CAL PDZ binding inhibitors, primary screen, biochemical, fluorescence polarization, HTS (AID 602252);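 also: 0% = DMSO neutral control and 100% = excess unlabeled competitor peptide PRC23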
# Run parameters: purified CAL PDZ, TMR-peptide fluorescence polarization, 1 h; at 24.9 µM; active compounds read high
The whole screen tested about 300,000 compounds, of which about 2,700 (0.9%) were called active. Many of the other results were omitted from the sample, so actives are more common in it than they were.
Observation type: inhibition (%)
Your answer is read as %, so omit the unit and give the number.

INSERT INTO measurements (compound, value_reported) VALUES
  ('COc1cc(/C=C/c2ccc(/C=C/c3cc(OC)c(OC)c(OC)c3)cc2)cc(OC)c1OC', -6.47);

Request: State the recorded inhibition for this entry: `COc1ccc(C(=O)Nc2cccc(/C=C(/CCC(=O)O)c3nc4ccccc4s3)c2)cc1`
Response: -1.62

Request: Ok, now `CCN(CC)S(=O)(=O)c1ccc(N2CCOCC2)c(C(=O)O)c1`
Response: -7.23

Request: Ok, now `Cc1ccc(OCCNC(=O)c2cccc(S(=O)(=O)N3CCN(Cc4ccccc4)CC3)c2)cc1`
Response: -4.14

Request: Ok, now Cc1nn(-c2ncccn2)c2c1C(=O)CC(C)(C)C2Br (stereo not given)
Response: 0.781

Cited source for all entries: PubChem BioAssay AID602252
